Details: 318.15 K; 65000 kPa; Liquid; Vibrating tube method
Parameter Measured: mass density (kg/m3)
Give the value in kg/m3 but do not write kg/m3 after it.

Sample CCCC[n+]1cccc(C)c1.N#C[N-]C#N [1-butyl-3-methylpyridinium dicyanamide] — what was its mass density?
1060.96

So what's the measured mass density for this one? CCCC[n+]1ccccc1.O=S(=O)([O-])C(F)(F)F [1-butylpyridinium trifluoromethanesulfonate]
1333.55

Given CCC[n+]1ccccc1Oc1ccc(Cl)c[n+]1CCOS(=O)(=O)[O-].F[B-](F)(F)F , state its recorded mass density.
1265.2

Field request: mass density | item: CCCCCCCC[n+]1cccc(C)c1.F[B-](F)(F)F [N-octyl-3-methylpyridinium tetrafluoroborate]
1112.69

Next:
Fill blank: measured mass density of the compound CCCC[n+]1ccccc1.F[B-](F)(F)F [1-butylpyridinium tetrafluoroborate] is ____.
1227.74

###

Settings: 318.15 K; 60000 kPa; Liquid; Vibrating tube method
Parameter Measured: mass density (kg/m3)
A number alone suffices; assume kg/m3.

Here are 4 molecules together with their reported answers.
So what does the record say about mass density for CCCC[n+]1ccccc1.F[B-](F)(F)F [1-butylpyridinium tetrafluoroborate] ?
1225.83

Which mass density is reported for this molecule? CCCC[n+]1cccc(C)c1.N#C[N-]C#N [1-butyl-3-methylpyridinium dicyanamide]
1059.3

Record request: mass density value, item CCCCCCCC[n+]1cccc(C)c1.F[B-](F)(F)F [N-octyl-3-methylpyridinium tetrafluoroborate]
1110.64

Recorded mass density of CCC[n+]1ccccc1Oc1ccc(Cl)c[n+]1CCOS(=O)(=O)[O-].F[B-](F)(F)F , please.
1263.53

For the next question, use this molecule.
What value of measured mass density is listed for CCCC[n+]1ccccc1.O=S(=O)([O-])C(F)(F)F [1-butylpyridinium trifluoromethanesulfonate] ?
1331.4

###

Settings: 313.15 K; 65000 kPa; Liquid; Vibrating tube method
Parameter Measured: mass density (kg/m3)
Reply with just the number (in kg/m3).

Worked cases, answers included:
Tell me the measured mass density of CCCCCCCC[n+]1cccc(C)c1.F[B-](F)(F)F [N-octyl-3-methylpyridinium tetrafluoroborate] , please.
1115.65

Requested read-out: mass density. Entry: CCCC[n+]1cccc(C)c1.N#C[N-]C#N [1-butyl-3-methylpyridinium dicyanamide]
1063.59

State the recorded mass density for this entry: CCCC[n+]1ccccc1.F[B-](F)(F)F [1-butylpyridinium tetrafluoroborate]
1231.01

Look up mass density: CCCC[n+]1ccccc1.O=S(=O)([O-])C(F)(F)F [1-butylpyridinium trifluoromethanesulfonate]
1337.08

Next item in the queue.
Could you tell me which mass density is on file for CCC[n+]1ccccc1Oc1ccc(Cl)c[n+]1CCOS(=O)(=O)[O-].F[B-](F)(F)F ?
1268.66

###

Conditions: 308.15 K; 5000 kPa; Liquid; Vibrating tube method
Parameter Measured: mass density (kg/m3)
Enter your answer as a number in kg/m3; do not include the unit.

mass density for CCC[n+]1ccccc1Oc1ccc(Cl)c[n+]1CCOS(=O)(=O)[O-].F[B-](F)(F)F ?
1248.19

I'd like to know its mass density. The compound in question is CCCCCCCC[n+]1cccc(C)c1.F[B-](F)(F)F [N-octyl-3-methylpyridinium tetrafluoroborate]
1091.74

What does the record list as mass density for CCCC[n+]1cccc(C)c1.N#C[N-]C#N [1-butyl-3-methylpyridinium dicyanamide] ?
1045.23

Recorded mass density of CCCC[n+]1ccccc1.F[B-](F)(F)F [1-butylpyridinium tetrafluoroborate] , please.
1209.57

Consider the record given below.
Given the entry CCCC[n+]1ccccc1.O=S(=O)([O-])C(F)(F)F [1-butylpyridinium trifluoromethanesulfonate] , report its measured mass density.
1310.78
